measure: melting point

compound: COC(=O)c1cc2cc(S(C)(=O)=O)ccc2[nH]1
measure: melting point
assay.result: 175 to 179 °C

[ask] Looking for the measured melting point of Cc1ccccc1NC(=O)C(C(F)(F)F)C(F)(F)F , can you help?
[reply] 193 to 195 °C

[ask] Looking for the measured melting point of COC(=O)c1sc(C(F)(F)F)c(-c2ccccc2)c1S(=O)(=O)Cl , can you help?
[reply] 74 to 75 °C

[ask] Looking for the measured melting point of O=C(O)C1Cc2ccccc2N1C(=O)OCc1ccccc1 (stereo not drawn) , can you help?
[reply] 103 to 105 °C

[ask] Looking for the measured melting point of COc1cc2c(c3oc(=O)c4c(c13)CCC4=O)C1C=COC1O2 (stereo not drawn) , can you help?
[reply] 268 to 269 °C

[ask] Looking for the measured melting point of S=c1[nH]ccn1-c1ccccc1Cl , can you help?
[reply] 246 to 248 °C

[ask] Looking for the measured melting point of O=c1c2ccccc2[nH]c2ccccc12 , can you help?
[reply] 360 to 362 °C

[ask] Looking for the measured melting point of CC(C)S(=O)(=O)c1cnc(-c2cccnc2)nc1N , can you help?
[reply] 225 to 228 °C

[ask] Looking for the measured melting point of O=C(CC(C(=O)c1ccccc1)C(CC(=O)c1ccccc1)C(=O)c1ccccc1)c1ccccc1 (stereo not drawn) , can you help?
[reply] 169 °C

* * *

Label criterion met when melting point is at or above 100 °C; anything below gets criterion not met.

Example results:
compound: C=CCO
classification: criterion not met
--
compound: O=C(O)C(Br)C(Br)C(=O)O (centres undefined)
classification: criterion met
--
compound: CC(=O)Oc1ccccc1C(=O)OC(=O)c1ccccc1OC(C)=O
classification: criterion not met
--
compound: O=C1C=CC(=O)N1Cc1ccccc1
classification: criterion not met
--
compound: Cc1ccc(C#N)cc1[N+](=O)[O-]
classification: criterion met
--
compound: C(=N\c1ccc(-c2ccc(/N=N/c3ccccc3)cc2)cc1)/c1ccccc1
classification: criterion met

[ask] Reported melting point at or above 100 °C? Cc1c(O)cccc1C(=O)O
[reply] criterion met

[ask] Reported melting point at or above 100 °C? S=c1cc(-c2ccccc2)oc(-c2ccccc2)c1
[reply] criterion met

[ask] Reported melting point at or above 100 °C? ClCCCCCCCCCCCl
[reply] criterion not met

[ask] Reported melting point at or above 100 °C? CCCCc1cc2ccccc2c(OCCN(C)C)n1
[reply] criterion met

[ask] Reported melting point at or above 100 °C? O=C(O)c1cc2cc(O)ccc2[nH]1
[reply] criterion met

* * *

melting point by entry:

Completed entries (count: 3):
compound: CC(C)(C)OC(=O)Nc1ccc(C(=O)O)cc1
measure: melting point
assay.result: 179 to 181 °C

compound: Nc1cc(Cl)c(Cl)cc1N
measure: melting point
assay.result: 162 to 163 °C

compound: CN1CCN(Cc2ccccc2CO)CC1
measure: melting point
assay.result: 62 to 64 °C

[ask] Looking for the measured melting point of CN(C)S(=O)(=O)Oc1ccc(C#N)cc1 , can you help?
[reply] 70 to 73 °C

[ask] Looking for the measured melting point of CCC1OC(=O)C(O)=C1C (stereo not given) , can you help?
[reply] 27 to 30 °C

* * *

melting point by entry:
The answer is to be given in °C; state only the numeric part.

Completed entries (count: 3):
compound: COc1ccc(F)c(C#N)c1
melting point / °C: 83
//
compound: O=C(O)c1cc(I)c(I)c(I)c1
melting point / °C: 292
//
compound: CCCCCCCCC(NC(=O)OCC1c2ccccc2-c2ccccc21)C(=O)O (stereo not drawn)
melting point / °C: 143

[ask] Looking for the measured melting point of COP(=S)(OC)SCc1nc(N)nc(N)n1 , can you help?
[reply] 165

[ask] Looking for the measured melting point of Cc1ccc(/N=N/c2c(N)nn3c(C)cc(=O)[nH]c23)cc1 , can you help?
[reply] 285

[ask] Looking for the measured melting point of BrCc1cc(Br)cc(Br)c1 , can you help?
[reply] 94

[ask] Looking for the measured melting point of CCOC(=O)c1nn(-c2ccc(C)cc2)c(C)c1C(=O)c1noc(-c2cccc3ccccc23)c1S(=O)(=O)c1ccccc1 , can you help?
[reply] 173

[ask] Looking for the measured melting point of N#Cc1ccc(C=Cc2ccc(C=Cc3ccc(C#N)cc3[N+](=O)[O-])cc2)c([N+](=O)[O-])c1 , can you help?
[reply] 350

[ask] Looking for the measured melting point of CCCCC(CC)CCl (stereo not drawn) , can you help?
[reply] -70

[ask] Looking for the measured melting point of CCSc1nnc(CCn2c(C)nc3ccccc32)n1-c1ccccc1 , can you help?
[reply] 110

[ask] Looking for the measured melting point of ClC(Cl)C(Cl)C(Cl)Cl , can you help?
[reply] -10

[ask] Looking for the measured melting point of COc1cc(Br)c(C=O)cc1OC , can you help?
[reply] 150

* * *

melting point by entry:
The answer is to be given in °C; state only the numeric part.

Completed entries (count: 3):
molecule: Clc1cc2oc3c(Cl)c(Cl)ccc3c2c(Cl)c1Cl
melting point, °C: 206
--
molecule: CN(C)C(=O)OC1N=C(c2ccccc2)c2cc(Cl)ccc2N(C)C1=O (stereo not drawn)
melting point, °C: 174
--
molecule: CSC(=Nc1ccccc1)C(C#N)=C(N)SC
melting point, °C: 177

[ask] Looking for the measured melting point of CC(C#N)c1ccccc1[N+](=O)[O-] (stereo not drawn) , can you help?
[reply] 51

[ask] Looking for the measured melting point of CCCCC(=O)OCCC , can you help?
[reply] -70.7

[ask] Looking for the measured melting point of COc1cc2c(cc1O)CCNC2 , can you help?
[reply] 222

* * *

Entries whose melting point is below 100 °C take Met; entries at or above 100 °C take Not met.

molecule: CC(=O)c1ccc(S(=O)(=O)Cl)cc1
classification: Met
--
molecule: O=C(Nc1cccc2ccccc12)C(C(F)(F)F)C(F)(F)F
classification: Not met
--
molecule: Cc1ccc(O)c(-n2nc3ccccc3n2)c1
classification: Not met

[ask] Please state whether melting point is below 100 °C for CC1(c2ccccc2)CCOCO1 (stereo not given)
[reply] Met

* * *

melting point by entry:

Completed entries (count: 3):
chem.smiles: N#Cc1cccc(S(=O)(=O)Cl)c1
measure: melting point
assay.result: 50 °C
//
chem.smiles: O=C(O)c1ccc(-c2cccs2)cc1
measure: melting point
assay.result: 240 to 244 °C
//
chem.smiles: COc1ccc(-n2cncn2)cc1
measure: melting point
assay.result: 97 °C

[ask] Looking for the measured melting point of Cc1cc(C(=O)CCl)c(C)n1-c1ccc(F)cc1 , can you help?
[reply] 80 to 82 °C

[ask] Looking for the measured melting point of CC1(C)CC(=O)C(=NNc2ccccc2[N+](=O)[O-])C(=O)C1 , can you help?
[reply] 139 to 140 °C

[ask] Looking for the measured melting point of CCCCCCCCOc1ccc(C=O)cc1OCCCCCCCC , can you help?
[reply] 54 to 56 °C

[ask] Looking for the measured melting point of Cc1ccc(C#N)n1C , can you help?
[reply] 53 to 56 °C

[ask] Looking for the measured melting point of CC(C)n1c(C(F)(F)F)nc2cc(C(=O)O)ccc21 , can you help?
[reply] 172 to 176 °C

[ask] Looking for the measured melting point of Brc1ccc(-c2ccno2)s1 , can you help?
[reply] 66 to 67 °C

* * *

melting point by entry:
The answer is to be given in °C; state only the numeric part.

Completed entries (count: 2):
molecule: FC(F)(Br)CBr
result.units: °C
melting point: -61
--
molecule: C=C1/C(=N/Nc2cc(Cl)c(Cl)cc2Cl)C(=O)N(C)C(=O)N1C
result.units: °C
melting point: 242

[ask] Looking for the measured melting point of O=C(O)C=Cc1ccc(F)c(C(F)(F)F)c1 , can you help?
[reply] 143

[ask] Looking for the measured melting point of CC12CCC(c3cn(-c4ccccc4)nc31)C2(C)C (stereo not given) , can you help?
[reply] 125

[ask] Looking for the measured melting point of IC12CC3CC(CC(C3)C1)C2 , can you help?
[reply] 75.5

[ask] Looking for the measured melting point of Cc1ccc(F)c(C#N)c1Cl , can you help?
[reply] 59

* * *

measure: melting point

chem.smiles: NNC(=O)c1ccc(Cl)c(Cl)c1
melting point: 154 to 160 °C

chem.smiles: COc1ccc(CO)c(OC)c1
melting point: 37 to 40 °C

Turning now to a further record.
[ask] Looking for the measured melting point of Cc1cc(C(=O)O)c(C)o1 , can you help?
[reply] 135 to 139 °C

* * *

Label Fulfilled when melting point is at or above 70 °C; anything below gets Not fulfilled.

Example results:
compound: COC(=O)c1ccc([N+](=O)[O-])cc1C(=O)OC
classification: Not fulfilled
--
compound: CC(C1=CCC(C(=O)O)C(C)(C)O1)(c1ccccc1)c1ccccc1 (centres undefined)
classification: Fulfilled

[ask] Reported melting point at or above 70 °C? CC(=O)Oc1ccccc1/C=C/c1ccccc1
[reply] Not fulfilled

[ask] Reported melting point at or above 70 °C? Cc1ccc(C(C)C)c(C)c1
[reply] Not fulfilled

[ask] Reported melting point at or above 70 °C? C=C(C)C(C)(C)CC
[reply] Not fulfilled

[ask] Reported melting point at or above 70 °C? CCCCCNCCCCC
[reply] Not fulfilled
